- Tested on: PA-TU-8902 (Pancreatic Carcinoma)
- ASSAY_TEXT: combination Emax (second highest fraction inhibited in the dose matrix, 72 h); higher = more inhibition; extreme values may be limits of the assay
Consider the following molecules; for each one, report its combination Emax.
Enter the number alone.

-- ask Read the entry CCN(CCO)CCCOc1ccc2c(Nc3cc(CC(=O)Nc4cccc(F)c4)[nH]n3)ncnc2c1 [AZD2811] + O=C(c1cc(Cc2n[nH]c(=O)c3ccccc23)ccc1F)N1CCN(C(=O)C2CC2)CC1 [Olaparib] (first compound max 1 µM, 7x7, partner max 10 µM) and write its reported combination Emax.
-- reply 0.187

-- ask Report measured combination Emax; entry is CN(CCO)CC[C@H](CSc1ccccc1)Nc1ccc(S(=O)(=O)NC(=O)c2ccc(N3CCC([C@@H](O)c4ccccc4-c4ccc(Cl)cc4)CC3)cc2)cc1S(=O)(=O)C(F)(F)F [AZD4320] + Cc1cc2ncnn2cc1Nc1ncc2c(n1)n(C1CCOCC1)c(=O)n2C [AZD7648] (first compound max 1 µM, 7x7, partner max 10 µM)
-- reply 0.144

-- ask Look up and report measured combination Emax for this entry: COc1cccc2c1C(=O)c1c(O)c3c(c(O)c1C2=O)C[C@@](O)(C(=O)CO)C[C@@H]3O[C@H]1C[C@H](N)[C@H](O)[C@H](C)O1 [Doxorubicin] + Cc1cc2ncnn2cc1Nc1ncc2c(n1)n(C1CCOCC1)c(=O)n2C [AZD7648] (first compound max 1 µM, 7x7, partner max 10 µM)
-- reply 0.372
